Catalogue of pIC50 values
system: platelet aggregation induced by arachidonic acid (AA); experiment: Antiplatelet assay, arachidonic acid-induced aggregation; type: cell-based, rabbit; conditions: Oryctolagus cuniculus, Platelet; AA 100 μM; 37° C., 1 min preincubation; read-out: IC50, platelet aggregation induced by arachidonic acid (in vitro) (Table 6)
pIC50: −log10 of the molar value.
MEASURED_PARAMETER: pIC50

COc1nc(-c2ccccc2)nc2ccccc12 [Compound 69, 4-Methoxy-2-phenylquinazoline]	5.14
CCOc1nc(-c2ccccc2OC)nc2ccccc12 [Compound 74, 4-Ethoxy-2-(2′-methoxyphenyl)quinazoline]	3.67
CC(=O)Oc1ccccc1C(=O)O [Aspirin]	4.70
CCOC(=O)COc1nc(-c2ccccc2)nc2ccccc12 [Compound 71]	4.57
CCOC(=O)CCCOc1nc(-c2ccccc2)nc2ccccc12 [Compound 72]	4.51
COc1ccc2c(c1)c(CC(=O)O)c(C)n2C(=O)c1ccc(Cl)cc1 [Indomethacin]	6.60
CCn1c(-c2ccccc2)nc2ccccc2c1=O [Compound 78, N^3-Ethyl-2-phenyl-4-quinazolinone]	3.74
CCOc1nc(-c2ccccc2)nc2ccccc12 [Compound 70, 4-Ethoxy-2-phenylquinazoline]	5.80

----------
tested on: ileocecal carcinoma (HCT-8); test: In vitro cytotoxicity, HCT-8; details: Homo sapiens, HCT-8, 96 h, read-out: ED50 HCT-8
Catalogue of IC50 values
MEASURED_PARAMETER: IC50

COc1ccc(C2NC(=O)c3ccccc3N2)cc1OC (racemic) [Compound 66]	> 20 mg/L
COc1cccc(C2NC(=O)c3ccccc3N2)c1OC (racemic) [Compound 63]	> 20 mg/L
COc1ccc(OC)c(C2NC(=O)c3ccccc3N2)c1 (racemic) [Compound 65]	> 20 mg/L
COc1ccccc1C1NC(=O)c2ccccc2N1 (racemic) [Compound 60]	> 20 mg/L
COc1ccc(C2NC(=O)c3ccccc3N2)c(OC)c1 (racemic) [Compound 64]	> 20 mg/L
COc1ccc(C2NC(=O)c3ccccc3N2)cc1 (racemic) [Compound 62]	> 20 mg/L
COc1cccc(C2NC(=O)c3cc(Cl)ccc3N2)c1 (racemic) [Compound 68]	0.48 mg/L
COc1cccc(C2NC(=O)c3ccccc3N2)c1 (racemic) [Compound 61]	1.5 mg/L
COc1cc(OC)cc(C2NC(=O)c3ccccc3N2)c1 (racemic) [Compound 67]	3 mg/L

----------
system: platelet aggregation induced by arachidonic acid (AA); assay: Antiplatelet assay, arachidonic acid-induced aggregation; assay type: cell-based, rabbit; details: Oryctolagus cuniculus, Platelet; AA 100 μM; 37° C., 1 min preincubation; read-out: IC50, platelet aggregation induced by arachidonic acid (in vitro) (Table 6)
MEASURED_PARAMETER: IC50 (µM)

CCOc1nc(-c2cccc(OC)c2)nc2ccccc12 [Compound 75, 4-Ethoxy-2-(3′-methoxyphenyl)quinazoline]	69.3
CCOc1nc(-c2ccc(OC)cc2)nc2ccccc12 [Compound 76, 4-Ethoxy-2-(4′-methoxyphenyl)quinazoline]	5.36
Cn1c(-c2ccccc2)nc2ccccc2c1=O [Compound 77, N^3-methyl-2-phenyl-4-quinazolinone]	183

----------
test system: platelet aggregation induced by collagen; test: Antiplatelet assay, collagen-induced aggregation; type: cell-based, rabbit; conditions: Oryctolagus cuniculus, Platelet; collagen 10 μg/ml; read-out: IC50, collagen-induced platelet aggregation (Table 5)
MEASURED_PARAMETER: IC50 (µM)

CCOc1nc(-c2ccccc2)nc2ccccc12 [Compound 70, 4-Ethoxy-2-phenylquinazoline]	9.2
COc1nc(-c2ccccc2)nc2ccccc12 [Compound 69, 4-Methoxy-2-phenylquinazoline]	8.47
